Tested on: 596521-263-R-J1-PDC complex spheroid growth
run description: Anticancer human tumor 596521-263-R-J1-PDC patient-derived soft tissue sarcoma cell line growth inhibition [Asc]
details: second compound 0.1 µM; first compound 0.316 µM; active compounds read low
recorded endpoint: viability, T/C (%)
Answer in %, number only, no unit symbol.

compound: C=C(F)C(=O)N1CCN(c2nc(OCC3CCCN3C)nc3c2CCN(c2cccc4cccc(Cl)c24)C3)CC1CC#N (configuration not stated) + Cc1c(S(C)(=O)=O)c(-c2cc(F)cc(N3CCN(c4ccc(NS(=O)(=O)c5ccc(NC(CCN6CCC(C(=O)OCCCP(=O)(O)O)CC6)CSc6ccccc6)c(S(=O)(=O)C(F)(F)F)c5)cc4)CC3)c2)c(-c2ccc(Cl)cc2)n1C(C)C
unit abbreviation: %
viability, T/C: 93.9

Q. Bench note: what viability, T/C did C=CC(=O)N1CCN(c2nc(=O)n(-c3c(C)ccnc3C(C)C)c3nc(-c4c(O)cccc4F)c(F)cc23)C(C)C1 (configuration not stated) + Cc1c(S(C)(=O)=O)c(-c2cc(F)cc(N3CCN(c4ccc(NS(=O)(=O)c5ccc(NC(CCN6CCC(C(=O)OCCCP(=O)(O)O)CC6)CSc6ccccc6)c(S(=O)(=O)C(F)(F)F)c5)cc4)CC3)c2)c(-c2ccc(Cl)cc2)n1C(C)C show?
A. 93.6

----------
Listing: viability, T/C of selected compounds
Tested on: 596521-263-R-J1-PDC complex spheroid growth
run description: Anticancer human tumor 596521-263-R-J1-PDC cell line growth inhibition [Asc];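 note: spheroids exposed to compounds for 7 days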
details: second compound 0.316 µM; first compound 0.316 µM; active compounds read low
Answer in %, number only, no unit symbol.

compound: CCN1CCN(Cc2ccc(Nc3ncc(F)c(-c4cc(F)c5nc(C)n(C(C)C)c5c4)n3)nc2)CC1 + CNC(C)C(=O)NC1CN(S(=O)(=O)c2cccc(S(=O)(=O)N3CCC4CCC(C(=O)NC(c5ccccc5)c5ccccc5)N4C(=O)C(NC(=O)C(C)NC)C3)c2)CCC2CCC(C(=O)NC(c3ccccc3)c3ccccc3)N2C1=O
unit abbreviation: %
viability, T/C: 84.7

Q. Bench note: what viability, T/C did O=C(c1ccc(F)c(F)c1Nc1ccc(I)cc1F)N1CC(O)([C@@H]2CCCCN2)C1 + CNC(C)C(=O)NC1CN(S(=O)(=O)c2cccc(S(=O)(=O)N3CCC4CCC(C(=O)NC(c5ccccc5)c5ccccc5)N4C(=O)C(NC(=O)C(C)NC)C3)c2)CCC2CCC(C(=O)NC(c3ccccc3)c3ccccc3)N2C1=O show?
A. 36.8

Q. // same read-out, input: CNC(C)C(=O)NC1CN(S(=O)(=O)c2cccc(S(=O)(=O)N3CCC4CCC(C(=O)NC(c5ccccc5)c5ccccc5)N4C(=O)C(NC(=O)C(C)NC)C3)c2)CCC2CCC(C(=O)NC(c3ccccc3)c3ccccc3)N2C1=O (centres undefined) + Cc1c(S(C)(=O)=O)c(-c2cc(F)cc(N3CCN(c4ccc(NS(=O)(=O)c5ccc(NC(CCN6CCC(C(=O)OCCCP(=O)(O)O)CC6)CSc6ccccc6)c(S(=O)(=O)C(F)(F)F)c5)cc4)CC3)c2)c(-c2ccc(Cl)cc2)n1C(C)C
A. 70.9

Q. // same read-out, input: CCN1CCN(Cc2ccc(Nc3ncc(F)c(-c4cc(F)c5nc(C)n(C(C)C)c5c4)n3)nc2)CC1 + Cc1c(S(C)(=O)=O)c(-c2cc(F)cc(N3CCN(c4ccc(NS(=O)(=O)c5ccc(NC(CCN6CCC(C(=O)OCCCP(=O)(O)O)CC6)CSc6ccccc6)c(S(=O)(=O)C(F)(F)F)c5)cc4)CC3)c2)c(-c2ccc(Cl)cc2)n1C(C)C
A. 75.3

----------
Test system: 596521-263-R-J1-PDC complex spheroid growth
run description: Anticancer human tumor 596521-263-R-J1-PDC cell line growth inhibition [Asc];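 note: spheroids exposed to compounds for 7 days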
details: second compound 0.0316 µM; first compound 3.16 µM; active compounds read low
Source text: Multicellular complex tumor spheroid response to apoptosis pathway targeting inhibitors Alrizomadlin, Pelcitoclax, and Dasminapant in combination with a variety of drugs and investigational agents in selected tumor cell lines […] Compounds. […] If the clinical Cmax for an agent had not been determined, the highest concentration tested was 10 microM. […]
recorded endpoint: viability, T/C (%)
Answer in %, number only, no unit symbol.

Q. Bench note: what viability, T/C did C=CC(=O)N1CCN(c2nc(=O)n(-c3c(C)ccnc3C(C)C)c3nc(-c4c(O)cccc4F)c(F)cc23)C(C)C1 (configuration not stated) + Cc1c(S(C)(=O)=O)c(-c2cc(F)cc(N3CCN(c4ccc(NS(=O)(=O)c5ccc(NC(CCN6CCC(C(=O)OCCCP(=O)(O)O)CC6)CSc6ccccc6)c(S(=O)(=O)C(F)(F)F)c5)cc4)CC3)c2)c(-c2ccc(Cl)cc2)n1C(C)C show?
A. 94.9

Q. // same read-out, input: C=C(F)C(=O)N1CCN(c2nc(OCC3CCCN3C)nc3c2CCN(c2cccc4cccc(Cl)c24)C3)CC1CC#N (configuration not stated) + Cc1c(S(C)(=O)=O)c(-c2cc(F)cc(N3CCN(c4ccc(NS(=O)(=O)c5ccc(NC(CCN6CCC(C(=O)OCCCP(=O)(O)O)CC6)CSc6ccccc6)c(S(=O)(=O)C(F)(F)F)c5)cc4)CC3)c2)c(-c2ccc(Cl)cc2)n1C(C)C
A. 81.9

----------
Listing: viability, T/C of selected compounds
Test system: 596521-263-R-J1-PDC complex spheroid growth
run description: Anticancer human tumor 596521-263-R-J1-PDC cell line growth inhibition [Asc];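 note: spheroids exposed to compounds for 7 days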
details: second compound 0.1 µM; first compound 0.0316 µM; active compounds read low
Answer in %, number only, no unit symbol.

Please review the entries below; each comes with its answer.
compound: CCN1CCN(Cc2ccc(Nc3ncc(F)c(-c4cc(F)c5nc(C)n(C(C)C)c5c4)n3)nc2)CC1 + Cc1c(S(C)(=O)=O)c(-c2cc(F)cc(N3CCN(c4ccc(NS(=O)(=O)c5ccc(NC(CCN6CCC(C(=O)OCCCP(=O)(O)O)CC6)CSc6ccccc6)c(S(=O)(=O)C(F)(F)F)c5)cc4)CC3)c2)c(-c2ccc(Cl)cc2)n1C(C)C
unit abbreviation: %
endpoint result: 94.1

compound: Cn1ncnc1[C@H]1c2n[nH]c(=O)c3cc(F)cc(c23)N[C@@H]1c1ccc(F)cc1 + Cc1c(S(C)(=O)=O)c(-c2cc(F)cc(N3CCN(c4ccc(NS(=O)(=O)c5ccc(NC(CCN6CCC(C(=O)OCCCP(=O)(O)O)CC6)CSc6ccccc6)c(S(=O)(=O)C(F)(F)F)c5)cc4)CC3)c2)c(-c2ccc(Cl)cc2)n1C(C)C
unit abbreviation: %
endpoint result: 78.5

compound: NC1CCC(NC2CC2c2ccccc2)CC1 (centres undefined) + Cc1c(S(C)(=O)=O)c(-c2cc(F)cc(N3CCN(c4ccc(NS(=O)(=O)c5ccc(NC(CCN6CCC(C(=O)OCCCP(=O)(O)O)CC6)CSc6ccccc6)c(S(=O)(=O)C(F)(F)F)c5)cc4)CC3)c2)c(-c2ccc(Cl)cc2)n1C(C)C
unit abbreviation: %
endpoint result: 86.5

Q. Bench note: what viability, T/C did O=C(c1cc(Cc2n[nH]c(=O)c3ccccc23)ccc1F)N1CCN(C(=O)C2CC2)CC1 + CNC(C)C(=O)NC1CN(S(=O)(=O)c2cccc(S(=O)(=O)N3CCC4CCC(C(=O)NC(c5ccccc5)c5ccccc5)N4C(=O)C(NC(=O)C(C)NC)C3)c2)CCC2CCC(C(=O)NC(c3ccccc3)c3ccccc3)N2C1=O show?
A. 79.1

----------
Test system: 596521-263-R-J1-PDC complex spheroid growth
run description: Anticancer human tumor 596521-263-R-J1-PDC cell line growth inhibition [Asc];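 note: spheroids exposed to compounds for 7 days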
details: second compound 3.16 µM; first compound 0.1 µM; active compounds read low
recorded endpoint: viability, T/C (%)
Answer in %, number only, no unit symbol.

Q. Bench note: what viability, T/C did C=CC(=O)N1CCN(c2nc(=O)n(-c3c(C)ccnc3C(C)C)c3nc(-c4c(O)cccc4F)c(F)cc23)C(C)C1 (stereo unspecified) + Cc1c(S(C)(=O)=O)c(-c2cc(F)cc(N3CCN(c4ccc(NS(=O)(=O)c5ccc(NC(CCN6CCC(C(=O)OCCCP(=O)(O)O)CC6)CSc6ccccc6)c(S(=O)(=O)C(F)(F)F)c5)cc4)CC3)c2)c(-c2ccc(Cl)cc2)n1C(C)C show?
A. 63

----------
Listing: viability, T/C of selected molecules
Test system: 596521-263-R-J1-PDC complex spheroid growth
run description: Anticancer human tumor 596521-263-R-J1-PDC cell line growth inhibition [Asc];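 note: spheroids exposed to compounds for 7 days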
details: second compound 0.0316 µM; first compound 10 µM; active compounds read low

molecule: O=C(c1cc(Cc2n[nH]c(=O)c3ccccc23)ccc1F)N1CCN(C(=O)C2CC2)CC1 + Cc1c(S(C)(=O)=O)c(-c2cc(F)cc(N3CCN(c4ccc(NS(=O)(=O)c5ccc(NC(CCN6CCC(C(=O)OCCCP(=O)(O)O)CC6)CSc6ccccc6)c(S(=O)(=O)C(F)(F)F)c5)cc4)CC3)c2)c(-c2ccc(Cl)cc2)n1C(C)C
recorded endpoint: viability, T/C
endpoint result: 59.4%
//
molecule: C#Cc1c(F)ccc2cc(O)cc(-c3ncc4c(N5CC6CCC(C5)N6)nc(OCC56CCCN5CC(F)C6)nc4c3F)c12 (stereo not drawn) + CNC(C)C(=O)NC1CN(S(=O)(=O)c2cccc(S(=O)(=O)N3CCC4CCC(C(=O)NC(c5ccccc5)c5ccccc5)N4C(=O)C(NC(=O)C(C)NC)C3)c2)CCC2CCC(C(=O)NC(c3ccccc3)c3ccccc3)N2C1=O
recorded endpoint: viability, T/C
endpoint result: 61.1%

--- query ---
Q. Bench note: what viability, T/C did C=C(F)C(=O)N1CCN(c2nc(OCC3CCCN3C)nc3c2CCN(c2cccc4cccc(Cl)c24)C3)CC1CC#N (stereo not drawn) + Cc1c(S(C)(=O)=O)c(-c2cc(F)cc(N3CCN(c4ccc(NS(=O)(=O)c5ccc(NC(CCN6CCC(C(=O)OCCCP(=O)(O)O)CC6)CSc6ccccc6)c(S(=O)(=O)C(F)(F)F)c5)cc4)CC3)c2)c(-c2ccc(Cl)cc2)n1C(C)C show?
A. 0.22%

// provenance: PubChem BioAssay AID1963449
